Provide the recorded half-life at 1 μM for the entries that follow.
Assay: Liver microsomes stability
Format: in vitro ADME, human
Details: human, human liver microsomes, as repeated in Table 4; read-out: T½ of HLM (in vitro)
Number only, in min; omit the unit.

Ask: # lookup: half-life at 1 μM of [2H]C([2H])([2H])Oc1cc(C(=O)Nc2cc3c(cc2Oc2cc(C)cc(C)c2)C(=O)N(C)[C@@H](CC(=O)N(C)C)C(=O)N3)c(Br)c(OC([2H])([2H])[2H])c1OC([2H])([2H])[2H]
Reply: 59.8

Ask: # lookup: half-life at 1 μM of CCN(CC)C(=O)C[C@H]1C(=O)Nc2cc(NC(=O)c3cc(OC)c(OC)c(OC)c3Br)c(Oc3cc(C)cc(C)c3)cc2C(=O)N1C [a, reference compound]
Reply: 11

Ask: # lookup: half-life at 1 μM of [2H]C([2H])([2H])C([2H])([2H])N(C(=O)C[C@@H]1NC(=O)c2cc(Oc3cc(C)cc(C)c3)c(NC(=O)c3cc(OC)c(OC)c(OC)c3Cl)cc2NC1=O)C([2H])([2H])C([2H])([2H])[2H]
Reply: 50.6

Ask: # lookup: half-life at 1 μM of [2H]C([2H])([2H])Oc1cc(C(=O)Nc2cc3c(cc2Oc2cc(C)cc(C)c2)C(=O)N[C@@H](CC(=O)N(C([2H])([2H])C([2H])([2H])[2H])C([2H])([2H])C([2H])([2H])[2H])C(=O)N3)c(Br)c(OC([2H])([2H])[2H])c1OC([2H])([2H])[2H]
Reply: 217
